- systemTested: T1, ZNRF3 extracellular domain (biotinylated) (UniProt Q9ULT6 56-219, biotin (on the Avi-Tag; co-expression with BirA and 50 uM biotin))
- T1 construct: ZNRF3, extracellular domain; also called ZNRF3-ECD; ZNRF3 ECD; source: E. coli (BL21), co-expressed with BirA, purified (Ni-NTA, SUMO protease, second Ni-NTA, SEC Superdex 75); not shown: Avi-Tag, N-terminal, kept
- T1 sequence (looked up): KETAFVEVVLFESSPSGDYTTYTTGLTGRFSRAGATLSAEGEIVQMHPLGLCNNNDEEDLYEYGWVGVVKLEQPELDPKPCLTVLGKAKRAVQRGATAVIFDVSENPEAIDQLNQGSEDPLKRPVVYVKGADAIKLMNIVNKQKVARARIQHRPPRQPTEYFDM
- protocolText: BLI; biotinylated ZNRF3-ECD loaded on streptavidin biosensors (Octet R8); peptides serially diluted in 10 mM HEPES, 150 mM NaCl, 0.01% Tween 20, pH 7.5 with 0.8% DMF; association 3 min, dissociation 5 min; double-referenced; 1:1 binding model
- conditionsUsed: both partners purified
Non-standard residues stand in square brackets, D forms with d. No end group written: not given here. Abu = CC[C@H](N)C(=O)O
experimentalReadout: Kd (nM)

> print(dat)
                                     binder  experimentalreadout  reportedmeasurement
1  [Abu]HLSPLEAWRQKL[Abu] [Z27S1Abu (linear analogue of Z27S1)]                   Kd                 2600
